target: MSI1 full-length (mouse, UniProt Q61474 1-362); test: nsRBNS (natural sequence RNA bind-n-seq); RBNS binding buffer (assumed for nsRBNS): 25 mM Tris pH 7.5, 150 mM KCl, 3 mM MgCl2, 0.01% Triton X-100, 500 ug/ml BSA, 20 U/ml SUPERase-In, 4 C; UNK is unkempt and MSI1 is Musashi-1; names of the RNAs are library labels; protein concentration not given here; high values mean tight binding
Sequence (Q61474 whole entry): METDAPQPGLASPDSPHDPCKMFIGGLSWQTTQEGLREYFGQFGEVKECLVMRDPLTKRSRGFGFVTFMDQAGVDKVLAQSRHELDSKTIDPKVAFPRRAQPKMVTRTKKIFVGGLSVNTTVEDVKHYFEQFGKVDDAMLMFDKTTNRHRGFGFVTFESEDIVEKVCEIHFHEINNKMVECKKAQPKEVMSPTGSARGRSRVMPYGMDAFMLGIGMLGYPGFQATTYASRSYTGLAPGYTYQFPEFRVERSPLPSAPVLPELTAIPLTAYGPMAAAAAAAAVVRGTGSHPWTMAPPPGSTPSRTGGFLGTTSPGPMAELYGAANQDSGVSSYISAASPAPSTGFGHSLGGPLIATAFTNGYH
The full ranking holds about 5,800 sequences; the median of “enrichment r” is about 0.54, and the highest 2% start at about 16. The sample holds the highest values, similar sequences and a random draw of the others, so the mix is not that of the screen.
metric_name: binding signal (enrichment R)
Field: numeric (enrichment R). Do not append units.

Problem: Quick one: binding signal for chr10:17237356:17237519:+|3pUTR|ENSG00000026025|msi1_unk|total|mutant (ssRNA) RNA: GGGAGUUCUACAGUCCGACGAUCAGACCGAUUUGGAACCGGAAUAAGCUCCCGUUCUUAACAACCGACACUCCUACAAGAUUCCGAAAAAAGUUUACAACAUAAUCCCGUUUACAGAAAAAUCUUGUGCCCGAAUACUUUUUACAACAGAGGAUUGAGCAUCA ?
Result: 0.307

Problem: What about this binder? chr6:145799413:145799514:-|3pUTR|ENSG00000118496|msi1|total|mutant (ssRNA) RNA: GGGAGUUCUACAGUCCGACGAUCUUAUCUCACAUACUUACAACUCAACACACAGAGUGACCAUGUGCAGCUUUCUUUUUUGUCCGAUGCCACAUCCGAAGACUCAUCGCAGUGUGUUAUAUGACAGGACAAAGCAAAAACAAACAACAGAGGAUUGAGCAUCA
Result: 0.363

Problem: What about this binder? chrX:120258281:120258382:+|3pUTR|ENSG00000177485|msi1|FALSE|bound_elsewhere (ssRNA) RNA: GGGAGUUCUACAGUCCGACGAUCUGUACAAUCUUCCCUGUCAUGACUUUAAGUUCUACUUUUCAUUAACCAUGGCCUGAUAUUAGUUCUUAGAGCUUCUUGUGGCAAAAAUAAAAUGAUUUAAUUCUGAUGUUUGAGUGCGUGCAACAGAGGAUUGAGCAUCA
Result: 0.662

Just for reference, paper PMC12136788 is where these values come from.
